System: NCI/ADR-RES ovarian
Assay: NCI tumour cell line growth inhibition, 48 h
Reported TGI values for the following compounds.
Experimental endpoint: TGI

[[record]]
compound = "CC(=O)[C@@]1(C)CC2(CCN(C)CC2)OC1C (stereo partly specified)"
test_result = "> 100 µM"

[[record]]
compound = "CCc1cccc(C)c1NC(=O)c1sc2nc3c(cc2c1N)CCCCC3"
test_result = "14.1 µM"

[[record]]
compound = "O=[N+]([O-])C1CC/C(=N/O)c2nonc21 (stereo unspecified)"
test_result = "> 10 µM"

[[record]]
compound = "CN(CCn1cnc2c1c(=O)n(C)c(=O)n2C)C1CCCCC1"
test_result = "> 100 µM"

[[record]]
compound = "CCCCCCCCOC1C(O)C(O)C(O)C(O)C12CO2 (stereo unspecified)"
test_result = "> 100 µM"

[[record]]
compound = "COC(=O)CCc1c[nH]c2ccc(N(CCCl)CCCl)cc12"
test_result = "> 56.8 µM"

[[record]]
compound = "COc1ccc2c(C)cc(N/N=C/c3ccc(OC)c4ccccc34)nc2c1"
test_result = "32.7 µM"

[[record]]
compound = "COc1ccc2nc3c([N+](=O)[O-])ccc4c3c(c2c1)NCCN4CCO"
test_result = "4.41 µM"

[[record]]
compound = "Oc1[nH]c2ccccc2c1N=Nc1ccccn1"
test_result = "28 µM"

[[record]]
compound = "C[C@]12CC[C@H]3[C@@H](CC=C4C[C@@H](N5CCCC5)CC[C@@]43C)[C@@H]1C[C@H](N1CCOCC1)[C@@H]2O"
test_result = "> 100 µM"

[[record]]
compound = "CCCN(CCCC(NC(C)=O)C(=O)NCc1ccccc1)C(=O)N(CCCl)N=O (stereo unspecified)"
test_result = "> 100 µM"

